The values you see were collected from patent US11420961B2.

Molecular target: MAGL (recombinant wild-type) (Homo sapiens, UniProt Q99685)
Sequence (Q99685 whole entry, species assumed): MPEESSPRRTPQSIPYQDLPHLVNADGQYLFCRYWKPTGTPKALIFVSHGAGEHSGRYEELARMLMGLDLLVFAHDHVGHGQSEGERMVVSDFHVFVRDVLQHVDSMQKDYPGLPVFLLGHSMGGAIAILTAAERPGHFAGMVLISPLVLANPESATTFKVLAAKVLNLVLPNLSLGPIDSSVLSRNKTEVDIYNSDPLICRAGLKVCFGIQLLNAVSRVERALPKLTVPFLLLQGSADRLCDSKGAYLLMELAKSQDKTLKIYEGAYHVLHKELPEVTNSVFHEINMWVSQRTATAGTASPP
Test: 4-NPA assay: MAGL inhibitory activity by hydrolysis of 4-nitrophenylacetate, absorbance at 405 nm
Format: biochemical
Details: 4-NPA assay (values without footnote [a])
pIC50: −log10 of the molar value.
MEASUREMENT_NAME: pIC50

SMILES_REPRESENTATION: Cn1cc(C2CCN(C(=O)c3ccc4c(c3)NC(=O)CO4)CC2)c2cc(Cl)ccc21
MEASUREMENT_TARGET: MAGL (recombinant wild-type) (Homo sapiens, UniProt Q99685)
pIC50: 8.77

A = O=C1COc2ccc(C(=O)N3CCC(c4c[nH]c5ccc(F)cc45)CC3)cc2N1
B = O=C1COc2ccc(C(=O)N3CCC(c4c[nH]c5cc(C(F)(F)F)ccc45)CC3)cc2N1
C = O=C1COc2ccc(C(=O)N3CCC([C@@H](c4ccccc4)c4cccc(OCCOCCF)c4)CC3)cc2N1
Task: # rank_down: sort by pIC50, max first Use the labels to give the ranking in the order requested.
Result: C, A, B

* * *

Target: MAGL (recombinant wild-type) (Homo sapiens)
Experiment: 4-NPA assay: MAGL inhibitory activity by hydrolysis of 4-nitrophenylacetate, absorbance at 405 nm
Conditions: 4-NPA assay (values without footnote [a])
pIC50: −log10 of the molar value.
MEASUREMENT_NAME: pIC50

Recorded pIC50, per entry:
COMPOUND: COc1cc(C(=O)N2CCC(C(c3ccccc3)c3ccccc3)CC2)cc2c1CCC(=O)N2
RESULT: 8.57
//
COMPOUND: O=C1COc2ccc(C(=O)N3CCC([C@H](c4ccc(F)cc4)c4cccc(OCCF)c4)CC3)cc2N1
RESULT: 9.28

1 = O=C1COc2cc(F)c(C(=O)N3CCC(C(c4ccccc4)c4ccccc4)CC3)cc2N1
2 = O=C1COc2ccc(C(=O)N3CCN(c4ccc(Cl)c(C(F)(F)F)c4)CC3)cc2N1
3 = Cc1cccc(C(c2ccccc2)C2CCN(C(=O)c3ccc4c(c3)NC(=O)CO4)CC2)c1 (centres unmarked)
Task: Your job: order these 3 records by pIC50, ascending. Order the labels as requested and list them.
Result: 2, 1, 3

* * *

Biological target: MAGL (recombinant wild-type) (Homo sapiens)
Assay: 4-NPA assay: MAGL inhibitory activity by hydrolysis of 4-nitrophenylacetate, absorbance at 405 nm
Conditions: 4-NPA assay (values without footnote [a])
MEASUREMENT_NAME: IC50 (nM)

COMPOUND: O=C1COc2ccc(C(=O)N3CCC(C(c4ccccc4)c4cccc(F)n4)CC3)cc2N1 (single isomer, unassigned) [Example 98]
IC50 / nM: 1.8

1 = Cc1ccc([C@@H](c2ccccc2)C2CCN(C(=O)c3ccc4c(c3)NC(=O)CO4)CC2)cc1 (single isomer, unassigned)
2 = Cn1cc(C2CCN(C(=O)c3cc4c(cc3F)OCC(=O)N4)CC2)c2cc(Cl)c(F)cc21
Task: For the pair 1 and 2 , which entry has the numerically smaller recorded IC50? Identify your selection by its label.
Result: 1
